Sourced from patent US5547956A

Assay: Acute Toxicity Test, rats
Format: in vivo, rat
Details: rat, in vivo, ip, intraperitoneal injection, read-out: LD50 (95 % confidence limit)
quantity_kind: LD50

compound: CCN1CC2(OC(=O)c3ccccc3NC(C)=O)CCC(OC)C34C1C(CC23)C1(O)CC(OC)C2CC4C1(O)C2OC (stereo not shown) [Lappaconitine]
measurement: 16.5 mg/kg

---

Assay: Acute Toxicity Test, mice
Type: in vivo, mouse
Conditions: mouse, in vivo, intravenous injection, read-out: LD50 (95 % confidence limit)
quantity_kind: LD50

compound: CCN1CC2(OC(=O)c3ccccc3NC(C)=O)CCC(OC)C34C1C(CC23)C1(O)CC(OC)C2CC4C1(O)C2OC (stereo not shown) [Lappaconitine]
quantity_kind: LD50
measurement: 8.4 mg/kg
